biological target: GlyT2 (wtGlyT2) (Rattus norvegicus, UniProt P58295); experiment: [3H]glycine uptake inhibition in transfected COS7 cells
Sequence (P58295 whole entry): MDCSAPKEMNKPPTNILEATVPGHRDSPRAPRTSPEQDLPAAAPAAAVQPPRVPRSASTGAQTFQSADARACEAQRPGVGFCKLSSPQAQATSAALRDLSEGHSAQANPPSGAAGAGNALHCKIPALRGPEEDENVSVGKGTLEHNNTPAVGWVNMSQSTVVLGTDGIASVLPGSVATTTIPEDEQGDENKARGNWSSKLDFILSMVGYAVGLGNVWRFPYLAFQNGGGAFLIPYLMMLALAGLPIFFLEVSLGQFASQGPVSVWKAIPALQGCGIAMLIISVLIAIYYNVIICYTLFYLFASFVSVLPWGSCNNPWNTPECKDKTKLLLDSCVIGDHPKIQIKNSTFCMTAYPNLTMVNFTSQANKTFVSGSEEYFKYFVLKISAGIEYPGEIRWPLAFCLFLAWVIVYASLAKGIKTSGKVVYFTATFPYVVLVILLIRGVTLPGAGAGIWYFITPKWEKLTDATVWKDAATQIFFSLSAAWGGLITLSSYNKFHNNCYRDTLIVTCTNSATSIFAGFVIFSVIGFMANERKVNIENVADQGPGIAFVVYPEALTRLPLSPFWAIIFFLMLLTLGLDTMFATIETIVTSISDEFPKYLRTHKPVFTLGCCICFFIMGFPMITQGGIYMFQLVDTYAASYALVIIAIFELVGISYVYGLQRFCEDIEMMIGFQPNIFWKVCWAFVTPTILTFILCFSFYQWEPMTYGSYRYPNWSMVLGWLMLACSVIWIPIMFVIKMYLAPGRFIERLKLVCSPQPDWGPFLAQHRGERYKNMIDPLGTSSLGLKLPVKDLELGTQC
pIC50: −log10 of the molar value.

[
  {
    "Given smiles": "CCCCC/C=C\\C/C=C\\C/C=C\\C/C=C\\CCCC(=O)NCC(=O)O",
    "pIC50": 4.17
  }
]
